Ref: patent US8936787B2

# Test system: red blood cells
# experimentalProtocol: Red blood cell hemolysis assay
# Format: cell-based
# testContext: 1 hour at 37° C., maximum dose tested
Ends that are not written are not given here.
readout: red blood cells lysed (hemolysis)

1) DWLKAFYDKVAEKLKEAFPDWLKAAYDKAAEKAKEAA [4A]: no appreciable hemolysis
2) DWLKAFYDKVAEKLKEAFPDWAKAAYDKAAEKAKEAA [5A]: no appreciable hemolysis
